# Study target: Tyrosine-protein phosphatase non-receptor type 11 (Homo sapiens, UniProt Q06124)
# Sequence (Q06124 whole entry): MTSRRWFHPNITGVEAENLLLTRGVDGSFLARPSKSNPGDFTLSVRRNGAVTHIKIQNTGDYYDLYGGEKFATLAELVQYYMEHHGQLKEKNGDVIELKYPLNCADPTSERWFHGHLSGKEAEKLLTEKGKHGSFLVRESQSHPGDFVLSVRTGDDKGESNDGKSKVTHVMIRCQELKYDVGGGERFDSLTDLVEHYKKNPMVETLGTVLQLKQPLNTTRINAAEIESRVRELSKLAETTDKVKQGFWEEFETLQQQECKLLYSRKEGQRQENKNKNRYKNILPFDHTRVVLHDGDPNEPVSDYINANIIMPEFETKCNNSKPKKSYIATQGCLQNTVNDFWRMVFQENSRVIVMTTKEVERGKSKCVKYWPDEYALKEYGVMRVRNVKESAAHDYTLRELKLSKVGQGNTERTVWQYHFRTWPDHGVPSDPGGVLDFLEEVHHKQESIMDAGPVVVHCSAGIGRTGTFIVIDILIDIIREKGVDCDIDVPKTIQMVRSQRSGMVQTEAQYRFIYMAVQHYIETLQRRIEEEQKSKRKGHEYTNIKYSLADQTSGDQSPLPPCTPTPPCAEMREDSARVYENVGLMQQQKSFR
# Experimental details: Allosteric inhibition of recombinant human SHP2 using IRS1 peptide and DiFMUP as substrate incubated for 30 mins followed by DiFMUP addition and measured after 30 mins by fluorescence based microplate reader analysis
Can you tell me IC50 for the items I'm about to list?

IC50 lookup needed for `Cn1cc2c(Cl)c(-c3n[nH]c4nc(N5C[C@@H]6[C@H](C5)[C@@]6(CN)c5ccccc5)cnc34)ccc2n1` , thanks. 9 nM

How about this molecule: `Cn1ccc([C@@]2(CN)[C@@H]3CN(c4cnc5c(-c6ccc7nn(C)cc7c6Cl)n[nH]c5n4)C[C@@H]32)n1` 7 nM

How about this molecule: `N[C@]1(c2ccccc2)[C@@H]2CN(c3nc4nc(Sc5cccnc5C(F)(F)F)cnc4[nH]3)C[C@@H]21` > 8000 nM

How about this molecule: `Cc1ccn([C@@]2(CN)[C@@H]3CN(c4cnc5c(-c6ccc7nn(C)cc7c6Cl)n[nH]c5n4)C[C@@H]32)n1` 49 nM

How about this molecule: `NC[C@]1(c2ccsc2)[C@@H]2CCN(c3nc4nc(Sc5cccnc5C(F)(F)F)cnc4[nH]3)C[C@@H]21` 54 nM

How about this molecule: `NC[C@]1(c2ccccc2)[C@@H]2CCN(c3nc4nc(Sc5cccnc5C(F)(F)F)cnc4[nH]3)C[C@@H]21` 94 nM

How about this molecule: `Cn1cc2c(Cl)c(-c3n[nH]c4nc(N5C[C@@H]6[C@H](C5)[C@@]6(CN)c5nccs5)cnc34)ccc2n1` 4 nM

How about this molecule: `Cc1csc([C@@]2(CN)[C@@H]3CCN(c4cnc5c(-c6cccnc6C(F)(F)F)n[nH]c5n4)C[C@@H]32)n1` 55 nM

How about this molecule: `Cc1cccc([C@@]2(CN)[C@@H]3CN(c4cnc5c(-c6ccc7nn(C)cc7c6Cl)n[nH]c5n4)C[C@@H]32)n1` 4 nM

How about this molecule: Cc1csc([C@@]2(CN)[C@@H]3CCN(c4cnc5c(-c6cccc(Cl)c6Cl)n[nH]c5n4)C[C@@H]32)n1 (racemic) 6 nM

How about this molecule: `NC[C@]1(c2ccsc2)[C@@H]2CCN(c3cnc4c(-c5cccc(Cl)c5Cl)n[nH]c4n3)C[C@@H]21` 8 nM

How about this molecule: `NC[C@]1(c2ccccc2)[C@@H]2CCN(c3cnc(Sc4cccnc4C(F)(F)F)c(N)n3)C[C@@H]21` 360 nM

How about this molecule: `NC[C@]1(c2ccccn2)[C@@H]2CCN(c3nc4nc(Sc5cccnc5C(F)(F)F)cnc4[nH]3)C[C@@H]21` 17 nM

How about this molecule: `NC[C@]1(c2ccccc2)[C@@H]2CCN(c3cnc4c(-c5cccc(Cl)c5Cl)n[nH]c4n3)C[C@@H]21` 9 nM

How about this molecule: `Cn1cc2c(Cl)c(-c3n[nH]c4nc(N5C[C@@H]6[C@H](C5)[C@@]6(CN)c5nc(C(F)(F)F)cs5)cnc34)ccc2n1` 12 nM
